T/C values by entry
test system: BDF1 mice, colon carcinoma 38 sc, T/C %; test: NCI In Vivo Anticancer Drug Screen. Data for tumor model Colon Carcinoma 38 (subcutaneous) in B6D2F1 (BDF1) mice; conditions: endpoint: median tumor weight (est.); dose: 25.0 mg/kg/injection; schedule: Q07DX002 (ip); vehicle: saline with Tween-80; higher = larger tumour
Records with an inconclusive call do not appear.

| molecule | T/C |
| --- | --- |
| Cc1cc(=O)n2c3c(c4c(cc13)c(CN(C)C)cc(=O)n4C)OC2 | 73 % of control |
| CCC1OC(OC)C=CC1=O (configuration not stated) | 92 % of control |
| O=C1NC(O)c2ccccc2O1 (configuration not stated) | 93 % of control |
| OCCOCC(F)(F)F | 86 % of control |

query: Consider the molecule Oc1cc2ccccc2c(-c2c(O)c(O)cc3ccccc23)c1O . State its measured T/C.
result: 119 % of control

query: Return T/C (reported value) for this molecule: CCN(CC)CCNc1ccc(C)c2sc3ccc(O)cc3c(=O)c12
result: 92 % of control

query: Identify T/C associated with the molecule COc1cccc(C2NC(=O)c3c(n[nH]c3N)S2)c1O (configuration not stated)
result: 102 % of control

----------
Overview of reported T/C across a group of compounds:
tested on: BDF1 mice, colon carcinoma 38 sc, T/C %; assay: NCI In Vivo Anticancer Drug Screen. Data for tumor model Colon Carcinoma 38 (subcutaneous) in B6D2F1 (BDF1) mice; conditions: endpoint: median tumor weight (est.); dose: 1.0 mg/kg/injection; schedule: Q07DX002 (ip); vehicle: saline; higher = larger tumour
Inconclusive results are not listed.

Below, each entry is followed by its recorded T/C result.
| compound | endpoint_result |
| --- | --- |
| CCCCCC(O)C1C(=O)OC(C)C(O)/C=C/C=C/C=C/C=C/C=C(\C)C(O)C(O)C(O)CC(O)CC(O)CC(O)CC(O)CC1O (centres undefined) | 118 % of control |
| C/C=C1\C[C@@H]2C(OC)Nc3cc(O)c(OC)cc3C(=O)N2C1 (some centres undefined) | 105 % of control |
| CC(C)CCCCCCCCCCCCC(=O)NCC(=O)NC1C(O)C(O)C(Nc2ncnc3nc[nH]c23)OC1C(O)CO (centres undefined) | 71 % of control |

query: Name the recorded T/C of the compound listed here: CCCCCCCCCCCCCCCC(=O)O[C@@]12C[C@@H](C)[C@@]3(O)[C@@H](C=C(CO)C[C@]4(O)C(=O)C(C)=C[C@@H]34)[C@@H]1C2(C)C
result: 60 % of control

----------
Items are presented alongside their recorded T/C.
tested on: BDF1 mice, colon carcinoma 38 sc, T/C %; test: NCI In Vivo Anticancer Drug Screen. Data for tumor model Colon Carcinoma 38 (subcutaneous) in B6D2F1 (BDF1) mice; details: endpoint: median tumor weight (est.); dose: 50.0 mg/kg/injection; schedule: Q07DX002 (ip); vehicle: saline with Tween-80; higher = larger tumour
Records with an inconclusive call do not appear.

Some molecules with recorded T/C:
| molecule | system | T/C |
| --- | --- | --- |
| BrCC[Se]c1ccccc1 | BDF1 mice, colon carcinoma 38 sc, T/C % | 107 % of control |
| O=c1[nH]c(=O)n(C2CC(O)C(CO)O2)cc1C(F)(F)F (stereo not given) | BDF1 mice, colon carcinoma 38 sc, T/C % | 100 % of control |

query: Check the records and state T/C for CCc1ccc(C2=C(O)C(=O)C(c3ccc(CC)cc3)=C(O)C2=O)cc1
result: 81 % of control

query: Please supply the value of reported T/C for the item C[Si](C)(CCl)N[Si](C)(C)CCl
result: 99 % of control

query: Using known records, supply T/C for C[n+]1c(/C=N/NC(N)=S)ccc2ccccc21
result: 77 % of control

query: Please look at this molecule and report its T/C: CC1(c2ccc(Cl)cc2)OC(=O)C(=Cc2ccc([N+](=O)[O-])s2)C(=O)O1 (stereo not given)
result: 101 % of control

query: Report T/C for CC(=O)Oc1ccc[nH]c1=O
result: 77 % of control

query: Given the molecule CN=C(N)N/N=C(\C)c1ccc2oc3ccc(/C(C)=N/NC(N)=NC)cc3c2c1 , write its reported T/C.
result: 100 % of control

query: Given the molecule COc1cc(Cl)ccc1C , write its reported T/C.
result: 68 % of control
